target_or_system: pantothenate kinase (PanK, Cab1) (Saccharomyces cerevisiae, UniProt Q04430)
Construct: wild-type Cab1 expressed from pSBS5 in yeast strain JS91.14-24, partially purified on DEAE sepharose
Sequence (Q04430 whole entry): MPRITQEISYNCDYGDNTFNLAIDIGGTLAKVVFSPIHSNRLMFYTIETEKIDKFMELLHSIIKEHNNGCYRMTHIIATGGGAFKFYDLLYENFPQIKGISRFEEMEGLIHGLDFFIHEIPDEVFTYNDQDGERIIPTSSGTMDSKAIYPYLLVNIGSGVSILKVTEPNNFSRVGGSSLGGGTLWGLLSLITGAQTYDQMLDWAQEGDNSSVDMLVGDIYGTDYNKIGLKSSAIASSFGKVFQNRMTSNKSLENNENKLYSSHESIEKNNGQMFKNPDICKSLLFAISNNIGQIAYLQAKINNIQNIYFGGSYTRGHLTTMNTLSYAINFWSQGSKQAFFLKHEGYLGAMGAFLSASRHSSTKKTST
procedure_text: radiometric PanK assay with D-[[…]-14C]pantothenate, partially purified enzyme
Format: biochemical
readout_kind: pIC50
Please report pIC50 as the negative decimal logarithm of the molar concentration, giving only the number.

CC(C)(COP(=O)(O)OP(=O)(O)OC[C@H]1O[C@@H](n2cnc3c(N)ncnc32)[C@H](O)[C@@H]1OP(=O)(O)O)[C@@H](O)C(=O)NCCC(=O)NCCSC(=O)CC(=O)O: 3.09

// pIC50 value for CC(=O)SCCNC(=O)CCNC(=O)[C@H](O)C(C)(C)COP(=O)(O)OP(=O)(O)OC[C@H]1O[C@@H](n2cnc3c(N)ncnc32)[C@H](O)[C@@H]1OP(=O)(O)O : 4.44

---

target_or_system: pantothenate kinase PanK3 (murine) (Mus musculus, UniProt Q8R2W9)
Construct: murine wild-type PanK3 expressed from pJO73 in yeast strain JS91.14-24, partially purified on DEAE sepharose
Sequence (Q8R2W9 whole entry): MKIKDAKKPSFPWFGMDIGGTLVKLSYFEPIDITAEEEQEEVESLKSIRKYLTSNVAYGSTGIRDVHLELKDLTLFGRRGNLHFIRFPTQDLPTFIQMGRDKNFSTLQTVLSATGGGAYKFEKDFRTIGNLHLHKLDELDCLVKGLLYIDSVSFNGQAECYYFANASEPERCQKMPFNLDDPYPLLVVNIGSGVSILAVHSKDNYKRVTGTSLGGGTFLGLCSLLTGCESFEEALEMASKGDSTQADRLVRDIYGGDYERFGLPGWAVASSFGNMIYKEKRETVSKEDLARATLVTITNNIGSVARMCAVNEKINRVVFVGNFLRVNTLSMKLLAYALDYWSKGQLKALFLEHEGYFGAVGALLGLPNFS
procedure_text: radiometric PanK assay with D-[[…]-14C]pantothenate, partially purified enzyme
readout_kind: pIC50
Please report pIC50 as the negative decimal logarithm of the molar concentration, giving only the number.

// pIC50 value for CC(=O)SCCNC(=O)CCNC(=O)[C@H](O)C(C)(C)COP(=O)(O)OP(=O)(O)OC[C@H]1O[C@@H](n2cnc3c(N)ncnc32)[C@H](O)[C@@H]1OP(=O)(O)O : 6.00
